The following compounds are shown together with reported TGI values.
# System: U251 CNS
# TEST_DESCRIPTION: NCI tumour cell line growth inhibition, 48 h
// units = µM; emit number, no label

Use these answered entries as a reference point.
COMPOUND	TGI / µM
COC(=O)Cc1cc(O)c(C/C=C(\C)CC/C=C(\C)C(O)C(=O)C=C(C)C)cc1O (stereo unspecified)	35.7
Cc1ccc(C(SCC(N)C(=O)O)(c2ccccc2)c2ccc(C)cc2)cc1 (stereo unspecified)	15.5
CC(=O)OC1CCC2(C)C3CCC4(C)C(c5ccc(=O)oc5)CC5OC54C3CCC2(O)C1 (stereo unspecified)	9.14
NC(=NCCCOc1ccc(Cl)cc1)Nc1ccc(C(F)(F)F)cc1	3.89

Could you now look at the following compound, please?
Query block: Complete the entry with TGI for CCCCc1c(OC)cc(O)c2c1C(=O)c1[nH]c(C(=O)O)c(O)c(=O)c1C2=O
Result block: 17.6

Data provenance is PubChem BioAssay (NCI).
